Where do these numbers come from? They come from patent US20260193366A1.

Give measured Relative Inhibition of IL-13 induced pSTAT6 IC50 for each item. Keep answers brief.
# experimentalTarget: T1, hIL-4Rα on cells (human, UniProt P24394 26-825)
# T1 sequence: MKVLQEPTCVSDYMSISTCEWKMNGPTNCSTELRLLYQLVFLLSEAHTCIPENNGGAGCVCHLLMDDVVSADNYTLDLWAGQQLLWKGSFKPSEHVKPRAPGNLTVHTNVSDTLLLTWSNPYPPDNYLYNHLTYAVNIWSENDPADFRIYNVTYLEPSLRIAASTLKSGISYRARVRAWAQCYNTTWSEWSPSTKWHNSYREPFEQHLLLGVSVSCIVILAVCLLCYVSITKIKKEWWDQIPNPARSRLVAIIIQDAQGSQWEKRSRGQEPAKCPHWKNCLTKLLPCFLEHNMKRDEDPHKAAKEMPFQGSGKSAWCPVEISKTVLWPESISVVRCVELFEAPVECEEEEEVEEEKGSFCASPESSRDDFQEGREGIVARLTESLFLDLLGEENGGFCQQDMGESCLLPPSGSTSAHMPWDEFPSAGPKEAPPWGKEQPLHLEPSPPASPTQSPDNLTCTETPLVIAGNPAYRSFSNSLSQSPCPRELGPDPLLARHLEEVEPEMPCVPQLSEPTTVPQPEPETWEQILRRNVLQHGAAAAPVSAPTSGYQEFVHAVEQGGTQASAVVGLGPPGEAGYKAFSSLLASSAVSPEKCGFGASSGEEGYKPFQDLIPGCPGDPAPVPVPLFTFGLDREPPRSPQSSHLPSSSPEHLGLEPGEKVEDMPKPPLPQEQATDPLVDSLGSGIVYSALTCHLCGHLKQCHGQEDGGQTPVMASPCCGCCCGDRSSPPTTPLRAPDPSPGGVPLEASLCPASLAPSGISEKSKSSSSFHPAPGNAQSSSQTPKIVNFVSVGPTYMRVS
# testName: cell-based or functional assay

Reported Relative Inhibition of IL-13 induced pSTAT6 IC50, binder Construct 1 (mAb410) (antibody, IgG4, V domains shown, VH/VL only) VH: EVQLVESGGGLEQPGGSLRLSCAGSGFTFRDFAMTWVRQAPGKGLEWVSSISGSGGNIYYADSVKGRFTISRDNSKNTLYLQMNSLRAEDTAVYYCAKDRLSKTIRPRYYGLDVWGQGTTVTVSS VL: DIVMTQSPLSLPVTPGEPASISCRSSQSVLYSIGYNYVDWYLQKSGQSPQLLIYLGSKRASGVPDRFSGSGSGTDFTLKISRVEAEDVGFYYCMQSLDTPYTFGQGTKLEIK : ____
0.671 relative to dupilumab

# Relative Inhibition of IL-13 induced pSTAT6 IC50 lookup, item Construct 16 (mAb424) (antibody, IgG4, V domains shown, VH/VL only) VH: EVQLVESGGGLEQPGGSLRLSCAGSGFTFRTYAMTWVRQAPGKGLEWVSSISGSGDNIYYADSVKGRFTISRDNSKNTLYLQMNSLRAEDTAVYYCAKDRLSVTIRPRYYGLDVWGQGTTVTVSS VL: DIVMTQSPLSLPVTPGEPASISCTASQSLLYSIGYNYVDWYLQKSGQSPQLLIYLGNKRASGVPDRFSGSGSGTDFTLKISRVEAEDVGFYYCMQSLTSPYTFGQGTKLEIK
1.41 relative to dupilumab

Any idea what its Relative Inhibition of IL-13 induced pSTAT6 IC50 is? The binder is Construct 29 (mAb437) (antibody, IgG4, V domains shown, VH/VL only) VH: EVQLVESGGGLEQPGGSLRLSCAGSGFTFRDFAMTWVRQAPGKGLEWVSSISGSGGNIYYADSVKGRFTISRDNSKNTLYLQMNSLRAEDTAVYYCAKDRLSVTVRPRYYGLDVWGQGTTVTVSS VL: DIVMTQSPLSLPVTPGEPASISCTSSQSLLYSIGYNYVDWYLQKSGQSPQLLIYLGNKRASGVPDRFSGSGSGTDFTLKISRVEAEDVGFYYCMQSLTSPYTFGQGTKLEIK
0.624 relative to dupilumab
